- SUBJECT OF TEST: SHP2 protein (Homo sapiens, UniProt Q06124)
- Sequence (Q06124 1-593): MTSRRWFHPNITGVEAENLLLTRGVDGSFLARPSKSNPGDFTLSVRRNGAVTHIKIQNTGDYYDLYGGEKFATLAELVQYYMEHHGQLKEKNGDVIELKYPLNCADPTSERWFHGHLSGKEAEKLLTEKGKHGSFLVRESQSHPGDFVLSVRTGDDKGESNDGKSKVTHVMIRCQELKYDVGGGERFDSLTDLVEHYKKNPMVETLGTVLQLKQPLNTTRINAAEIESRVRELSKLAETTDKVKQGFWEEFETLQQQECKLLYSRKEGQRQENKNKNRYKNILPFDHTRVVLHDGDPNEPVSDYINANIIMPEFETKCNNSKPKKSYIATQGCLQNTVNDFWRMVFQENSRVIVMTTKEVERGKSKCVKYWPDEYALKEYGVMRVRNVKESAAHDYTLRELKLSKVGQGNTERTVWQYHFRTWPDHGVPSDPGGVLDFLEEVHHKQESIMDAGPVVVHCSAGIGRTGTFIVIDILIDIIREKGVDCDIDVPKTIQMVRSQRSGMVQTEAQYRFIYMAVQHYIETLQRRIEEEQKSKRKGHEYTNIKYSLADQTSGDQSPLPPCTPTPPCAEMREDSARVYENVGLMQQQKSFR
- ASSAY INFO: Degradation activity on SHP2 protein in NCI-H358 cells (Western blot, DC50)
- Assay type: cell-based
- Parameters: endogenous in cells
- CONDITION DETAILS: read-out: Degradation activity for differenct cell lines NCI-H358 (DC50)
PARAMETER MEASURED: DC50

CC1CN(CCCCCCCCC(=O)Nc2cccc(Sc3cnc(N4CCC(C)(N)CC4)cn3)c2)CC=C1c1ccc(C(=O)NC(C)c2ccc3c(c2)CN(C2CCC(=O)NC2=O)C3=O)nc1 (stereo not drawn)    < 100 nM

Quick request: DC50 for each listed item, please.
1. CC1(N)CCN(c2cnc(Sc3cccc(NC(=O)CCCCCCCCN4C[C@H]5C[C@@H]4CN5c4ccc(C(=O)NCc5ccc6c(c5)CN(C5CCC(=O)NC5=O)C6=O)nn4)c3)cn2)CC1 (stereo partly drawn)
2. CC1(N)CCN(c2cnc(Sc3cccc(NC(=O)CCCCCCCCN4CCC(c5ccc(C(=O)NCc6ccc7c(c6)CN(C6CCC(=O)NC6=O)C7=O)nn5)CC4)c3)cn2)CC1 (stereo not drawn)
3. Cc1ncsc1-c1ccc([C@H](C)NC(=O)[C@@H]2C[C@@H](O)CN2C(=O)[C@@H](NC(=O)c2cnc(N3CCN(CCCCC(=O)Nc4cccc(Sc5cnc(N6CCC(C)(N)CC6)cn5)c4)CC3)nc2)C(C)(C)C)cc1
4. Cc1ncsc1-c1ccc([C@H](C)NC(=O)[C@@H]2C[C@@H](O)CN2C(=O)[C@@H](NC(=O)CCCCCN2CCC3(C2)CN(CCC(=O)Nc2cccc(Sc4cnc(N5CCC(C)(N)CC5)cn4)c2)C3)C(C)(C)C)cc1
5. CC1(N)CCN(c2cnc(Sc3cccc(NC(=O)CCCCCCCCN4CCN(c5ccc(C(=O)NCc6ccc7c(c6)CN(C6CCC(=O)NC6=O)C7=O)nn5)CC4C(F)(F)F)c3)cn2)CC1 (stereo not drawn) [Compound 174]
6. Cc1ncsc1-c1ccc([C@H](C)NC(=O)[C@@H]2C[C@@H](O)CN2C(=O)[C@@H](NC(=O)c2cnc(N3CC(OCC(=O)Nc4cccc(Sc5cnc(N6CCC(C)(N)CC6)cn5)c4)C3)nc2)C(C)(C)C)cc1

Response:
< 100 nM
< 100 nM
< 100 nM
> 1000 nM
< 100 nM
> 1000 nM

// each listed molecule needs a value for DC50
1. CC1(N)CCN(c2cnc(Sc3cccc(NC(=O)CCCCCCCOC4CCN(c5ncc(C(=O)NCc6ccc7c(c6)CN(C6CCC(=O)NC6=O)C7=O)cn5)CC4)c3)cn2)CC1 (stereo not drawn)
2. Cc1ncsc1-c1ccc([C@H](C)NC(=O)[C@@H]2C[C@@H](O)CN2C(=O)[C@@H](NC(=O)c2cnc(N3CC(OCCCCCCC(=O)Nc4cccc(Sc5cnc(N6CCC(C)(N)CC6)cn5)c4)C3)nc2)C(C)(C)C)cc1
3. CC1(N)CCN(c2cnc(Sc3cccc(NC(=O)c4ccc(N5CCC(N6CCN(c7ccc(C(=O)NCc8ccc9c(c8)CN(C8CCC(=O)NC8=O)C9=O)nc7)CC6)CC5)cn4)c3)cn2)CC1 (stereo not drawn)

Response:
1: < 100 nM; 2: < 100 nM; 3: < 100 nM

Give measured DC50 for every item shown.
1. CC1(N)CCN(c2cnc(Sc3cccc(NC(=O)CCN4CCN(c5ccc(C(=O)NCc6ccc7c(c6)CN(C6CCC(=O)NC6=O)C7=O)nn5)CC4)c3)cn2)CC1 (stereo not drawn)
2. CC1(N)CCN(c2cnc(Sc3cccc(NC(=O)CCCCCCCOC4CCN(c5ccc(C(=O)NCc6ccc7c(c6)CN(C6CCC(=O)NC6=O)C7=O)nn5)CC4F)c3)cn2)CC1 (stereo not drawn)

Response:
1: < 100 nM; 2: < 100 nM
